TARGET_ENTITY: FZD1 cysteine-rich domain (CRD), MYC-tagged and GPI-anchored on CHO cells (human)
MEASUREMENT_DESCRIPTION: flow cytometry, CHO-CRD cells;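 further: flow cytometry of Fab binding to CHO cells overexpressing a Frizzled CRD, with binding defined as median fluorescence over twice that of CHO cells lacking any Frizzled CRD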
Attribute: median fluorescence
When you answer, write just the number.

Can you look up the measured median fluorescence of Fab-2903 (Fab, V domains shown, Fab; also called Fv-2903) VH: EVQLVESGGGLVQPGGSLRLSCAASGFNLSYYYIHWVRQAPGKGLEWVASIYPYSSYTSYADSVKGRFTISADTSKNTAYLQMNSLRAEDTAVYYCARGAIDYWGQGTLVTVSS V domain: DIQMTQSPSSLSASVGDRVTITCRASQSVSSAVAWYQQKPGKAPKLLIYSASSLYSGVPSRFSGSRSGTDFTLTISSLQPEDFATYYCQQWGGGSSLFTFG for me? 8.66

Can you look up the measured median fluorescence of Fab-2914 (Fab, V domains shown, Fab; also called Fv-2914) VH: EVQLVESGGGLVQPGGSLRLSCAASGFNIYYSYMHWVRQAPGKGLEWVASIYPSSSSTSYADSVKGRFTISADTSKNTAYLQMNSLRAEDTAVYYCARGAMDYWGQGTLVTVSS VL: DIQMTQSPSSLSASVGDRVTITCRASQSVSSAVAWYQQKPGKAPKLLIYSASSLYSGVPSRFSGSRSGTDFTLTISSLQPEDFATYYCQQWYYGSLITFGQGTKVEIK for me? 40.3

Can you look up the measured median fluorescence of Fab-2901 (Fab, V domains shown, Fab; also called Fv-2901) VH: EVQLVESGGGLVQPGGSLRLSCAASGFNISYSYMHWVRQAPGKGLEWVASIYSYSSYTYYADSVKGRFTISADTSKNTAYLQMNSLRAEDTAVYYCARSWYYWSPSSGMDYWGQGTLVTVSS VL: DIQMTQSPSSLSASVGDRVTITCRASQSVSSAVAWYQQKPGKAPKLLIYSASSLYSGVPSRFSGSRSGTDFTLTISSLQPEDFATYYCQQGGFLITFGQGTKVEIK for me? 17.1
